# system: T1, human TL1A (Fitzgerald, Prod. #30R-AT070) (human, UniProt O95150 72-251, limits assumed, biotinylated with EZ-Link Sulfo-NHS-LC-Biotin where used as soluble antigen)
# T1 construct: also called TNFSF15; biotinylated human TL1A
# T1 sequence (looked up): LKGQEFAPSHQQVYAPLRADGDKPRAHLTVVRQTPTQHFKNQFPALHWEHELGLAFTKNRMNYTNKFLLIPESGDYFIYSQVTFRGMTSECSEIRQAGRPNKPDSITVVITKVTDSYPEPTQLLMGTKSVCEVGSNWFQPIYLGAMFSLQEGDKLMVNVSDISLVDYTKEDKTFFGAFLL
# testMethodNotes: capture lift screen and Fab ELISA on coated TL1A
parameter: binding result

>>> value("clone 16-2 Fab (12835 framework variant) (Fab, V domains shown, Fab) VH: QVQLVQSGAEVKKPGASVKLSCKASGFDIQDTYMHWVRQAPGQGLEWMGRIDPASGHTKYDPKFQVRVTMTRDTSTSTVYMELSSLRSEDTAVYYCSRSGGLPDVWGQGTTVTVSS VL: EIVLTQSPGTLSLSPGERATLSCRASSSVSYMYWYQQKPGQAPRLLIYATSNLASGIPDRFSGSGSGTDYTLTISRLEPEDFAVYYCQQWSGNPRTFGGGTKLEIK")
"binds"
>>> value("clone 9-1 Fab (12835 framework variant) (Fab, V domains shown, Fab) VH: QVQLVQSGAEVKKPGASVKLSCKASGFDIQDTYMHWVRQAPGQGLEWMGRIDPASGHTKYDPKFQVRVTMTRDTSTSTVYMELSSLRSEDTAVYYCSRSGGLPDVWGQGTTVTVSS VL: EIVLTQSPGTLSLSPGERATLSCRASSSVSYMYWYQQKPGQAPRPWIYATSNLASGVPDRFSGSGSGTDFTLTISRLEPEDFAVYYCQQWSGNPRTFGGGTKLEIK")
"binds"
>>> value("clone 1-3 Fab (12835 framework variant) (Fab, V domains shown, Fab) VH: QVQLVQSGAEVKKPGASVKLSCKASGFDIQDTYMHWVRQAPGQGLEWMGRIDPASGHTKYDPKFQVRVTMTTDTSTSTVYMELSSLRSEDTAVYYCSRSGGLPDVWGQGTTVTVSS VL: EIVLTQSPGTLSLSPGERVTMSCRASSSVSYMYWYQQKPGQAPRPWIYATSNLASGIPDRFSGSGSGTDYTLTISRLEPEDFAVYYCQQWSGNPRTFGGGTKLEIK")
"binds"
